- assayedTarget: huAXL-ECD displayed on yeast (human) (UniProt P30530)
- Sequence (P30530 26-449, form in doubt): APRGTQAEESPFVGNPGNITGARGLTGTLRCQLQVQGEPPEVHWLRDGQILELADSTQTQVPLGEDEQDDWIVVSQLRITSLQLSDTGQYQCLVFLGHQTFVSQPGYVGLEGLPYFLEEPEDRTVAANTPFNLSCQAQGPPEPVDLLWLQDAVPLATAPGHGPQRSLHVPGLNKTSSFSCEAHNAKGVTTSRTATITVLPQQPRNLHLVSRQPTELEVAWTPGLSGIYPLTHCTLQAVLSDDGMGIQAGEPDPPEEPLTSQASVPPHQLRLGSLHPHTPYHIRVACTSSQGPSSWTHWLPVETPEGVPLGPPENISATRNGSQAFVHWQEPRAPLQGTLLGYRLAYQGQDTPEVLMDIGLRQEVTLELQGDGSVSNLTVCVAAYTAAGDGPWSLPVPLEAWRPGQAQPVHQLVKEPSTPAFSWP
- protocolSummary: yeast surface display ELISA, non-denatured yeast, goat anti-human F(ab')2-HRP
metric: yeast ELISA signal normalized to myc expression level

{"binder": "hFC-F107-10G1 (antibody, human IgG1, kappa, V domains shown) VH: EVNLVESGGGVVKPGASLKLSCEASGFTFSNYGMSWVRQTSDKRLEWVASISGGGGRTYYLDNVKGRFIISRENAKNTLYLQMSSLKSEDTALFYCARGARASYFAMDYWGQGSSVTVSS VL: VIVMTQSHKFMSTSVGDRVSITCKASQDVTTAVAWYQQKPGQSPKLLIYWASTRHTGVPDRFTGSGSGTDYSLTISNVQTEDLAFYYCQQHFTTPLTFGAGTKLELKR", "measValue": 1.39}
{"binder": "NRC-sdAb001-Fc (VHH-human IgG1 Fc fusion) (Fc fusion, not shown: a dimerising Fc or GST) QVKLEESGGGLVQAGGSLRLSCTASASISSFDIMGWYRQAPGKQRELVAAITTLDIANYRDSVKGRFTISRDNAKNTVYLQMDSLKPEDTARYHCAAFQSDQNYWGQGTQVTVSS", "measValue": 1.03}
{"binder": "NRC-sdAb002-Fc (VHH-human IgG1 Fc fusion) (Fc fusion, not shown: a dimerising Fc or GST) QVQLVDSGGGLVQAGGSLRLSCATSTRTVSSAVMAWFRQAPEKVRDFVGFITNSGNILYDDSVKGRFTISRDNAQNTVYLQMNSLKPEDTAVYYCAAKWSFSSGYGDLRRAAMYDYWGQGTQVTVSS", "measValue": 0.882}
{"binder": "NRC-sdAb003-Fc (VHH-human IgG1 Fc fusion) (Fc fusion, not shown: a dimerising Fc or GST) QVQLVESGGGLVQAGGSLRLSCAASGVTLDYTAIGWFRQAPGKERELVAAITSGGNTDYAESAKGRFRISRDNSKNTIYLQMNSLKPEDTGVYYCAARRGGARGEYDYWDQGTQVTVSS", "measValue": 0.659}
